- assayed system: glutathione-S-transferase (GST) tagged LXRbeta LBD (ligand binding domain) (Homo sapiens, UniProt P55055)
- Construct: purchased Invitrogen pv4658
- Sequence (P55055 222-460 limits assumed): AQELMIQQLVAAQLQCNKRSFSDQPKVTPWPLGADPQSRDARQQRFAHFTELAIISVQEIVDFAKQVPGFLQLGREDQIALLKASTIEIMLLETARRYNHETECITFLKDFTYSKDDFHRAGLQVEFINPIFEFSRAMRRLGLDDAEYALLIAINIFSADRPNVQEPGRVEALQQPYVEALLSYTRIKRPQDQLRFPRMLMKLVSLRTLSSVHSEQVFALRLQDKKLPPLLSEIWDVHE
- assay procedure: LanthaScreen TR-FRET Liver X Receptor Coactivator Assay, LXR beta
- Assay type: biochemical
- cond: LXR beta IP, potency (Inflection Point), compound-induced co-activator recruitment, TR-FRET
recorded metric: EC50 (nM)
Your answer should be a plain number; it is taken to be in nM.

For CN(C)C(=O)c1ccc(OCCC2CC23CCN(C(=O)C(C)(C)c2csc(N)n2)CC3)cc1Cl (single isomer, unassigned) [Example 12-10] the compound record lists EC50 as 608

For O=C(c1ccc(OCCCCC2CCN(C(=O)[C@](O)(c3ccccc3)C(F)(F)F)CC2)cc1Cl)N1CC[C@@H](O)C1 (single isomer, unassigned) [Example 8-3] the compound record lists EC50 as 17

For COc1cccc(C(O)(C(=O)N2CCC3(CCC(Oc4ccc(C(=O)N(C)C)c(Cl)c4)CC3)CC2)C(F)(F)F)c1 (single isomer, unassigned) [Example 1-1] the compound record lists EC50 as 25

For CN(C)C(=O)c1ccc(OC[C@@H]2C[C@H]2C2CCN(C(=O)C(C)(C)c3ccccc3)CC2)cc1Cl (single isomer, unassigned) [Example 32-4] the compound record lists EC50 as 163

---

- assayed system: glutathione-S-transferase (GST) tagged LXRalpha LBD (ligand binding domain) (Homo sapiens)
- Construct: purchased Invitrogen pv4655
- Sequence (Q13133 209-447 limits assumed): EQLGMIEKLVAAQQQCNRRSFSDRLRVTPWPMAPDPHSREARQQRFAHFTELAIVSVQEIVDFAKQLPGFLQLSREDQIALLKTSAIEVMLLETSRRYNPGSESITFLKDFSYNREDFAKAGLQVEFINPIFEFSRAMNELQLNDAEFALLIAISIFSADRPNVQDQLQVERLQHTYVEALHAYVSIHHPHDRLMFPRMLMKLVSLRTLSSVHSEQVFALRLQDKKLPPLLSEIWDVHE
- assay procedure: biochemical
- cond: read-out: LXR alpha actiivty at max dose, efficacy (% Emax) in relation to reference dual agonist T0901317
Can you tell me Emax for the items I'm about to list?
Your answer should be a plain number; it is taken to be in %.

For COc1cccc([C@@](O)(C(=O)N2CCC(C[C@H]3C[C@@H](Oc4ccc(C(=O)N(C)C)c(Cl)c4)C3)CC2)C(F)F)c1 (single isomer, unassigned) the compound record lists Emax as 0

For COc1cccc([C@](O)(C(=O)N2CCC(C[C@H]3C[C@@H](Oc4ccc(C(=O)N(C)C)c(Cl)c4)C3)CC2)C(F)F)c1 (single isomer, unassigned) the compound record lists Emax as 4

For COc1cccc(C(O)(C(=O)N2CCC3(CCC(Oc4ccc(C(=O)N(C)C)c(Cl)n4)CC3)CC2)C(F)(F)F)c1 (single isomer, unassigned) the compound record lists Emax as 35

---

Can you tell me Emax for the items I'm about to list?
- assayed system: glutathione-S-transferase (GST) tagged LXRbeta LBD (ligand binding domain) (Homo sapiens, UniProt P55055)
- Construct: purchased Invitrogen pv4658
- assay procedure: LanthaScreen TR-FRET Liver X Receptor Coactivator Assay, LXR beta
- Assay type: biochemical
- cond: read-out: LXR beta actiivty at max dose, efficacy (% Emax) in relation to reference dual agonist T0901317
Your answer should be a plain number; it is taken to be in %.

For COc1cccc(C(O)(C(=O)N2CCC(C(C)CC(C)COc3ccc(C(=O)N(C)C)c(Cl)c3)CC2)C(F)(F)F)c1 (single isomer, unassigned) the compound record lists Emax as 38

For CN(C)C(=O)c1ccc(OCCC2CC23CCN(C(=O)C2(c4cncnc4)CCC2)CC3)cc1Cl (single isomer, unassigned) the compound record lists Emax as 12

For CN(C)C(=O)c1ccc(OCCCCC2CCN(C(=O)C(C)(O)c3ccccc3)CC2)cc1Cl (single isomer, unassigned) the compound record lists Emax as 55

For CN(C)C(=O)c1ccc(OCCCCC2CCN(C(=O)C(O)(c3ccccc3)C(F)(F)F)CC2)cc1Cl (single isomer, unassigned) the compound record lists Emax as 85

For COc1ccccc1[C@@](O)(C(=O)N1CCC2(CC1)C[C@@H]2CCCOc1ccc(C(=O)N(C)C)c(Cl)c1)C(F)(F)F (single isomer, unassigned) the compound record lists Emax as 118

For CC(C)C(O)(C(=O)N1CCC(C2CC2COc2ccc(C(=O)N(C)C)c(Cl)c2)CC1)C(F)(F)F (single isomer, unassigned) the compound record lists Emax as 82

For CCOC(=O)N1CCN(C(=O)c2ccc(OCCCCC3CCN(C(=O)C(O)(c4ccccc4)C(F)(F)F)CC3)nc2Cl)CC1 (stereo not drawn) the compound record lists Emax as 75

For CN(C)C(=O)c1ccc(OCCCCC2CCN(C(=O)C(O)(c3cccnc3)C(F)(F)F)CC2)nc1Cl (stereo not drawn) the compound record lists Emax as 90

For O=C(c1ccc(OCCCCC2CCN(C(=O)C(O)(c3ccccc3)C(F)(F)F)CC2)cc1Cl)N1CCC1 (single isomer, unassigned) the compound record lists Emax as 55

For Cc1nnc(C(C)(C)C(=O)N2CCC3(CC2)CC3CCOc2ccc(C(=O)N(C)C)c(Cl)c2)s1 (single isomer, unassigned) the compound record lists Emax as 57

For CN(C)C(=O)c1ccc(OCC[C@H]2CC23CCN(C(=O)[C@](N)(c2ccccc2)C(F)(F)F)CC3)cc1Cl (single isomer, unassigned) the compound record lists Emax as 65

For CN(C)C(=O)c1ccc(OCCCC2CC3(CCN(C(=O)C(O)(c4ccccc4)C(F)(F)F)CC3)C2)cc1Cl (single isomer, unassigned) the compound record lists Emax as 61

For CN(C)C(=O)c1ccc(OCCC2CC23CCN(C(=O)C(C)(C)c2ccsc2)CC3)cc1Cl (single isomer, unassigned) the compound record lists Emax as 64

For CC(C)Oc1cccc(C(O)(C(=O)N2CCC(CCCCOc3ccc(C(=O)N(C)C)c(Cl)c3)CC2)C(F)(F)F)c1 (single isomer, unassigned) the compound record lists Emax as 80

For CN(C)C(=O)c1ccc(OC[C@@H](F)CCC2CCN(C(=O)[C@](O)(c3ccccc3)C(F)(F)F)CC2)cc1Cl (single isomer, unassigned) the compound record lists Emax as 73

For CN(C)C(=O)c1ccc(OCCCCC2CCN(C(=O)C3(c4ccccc4)CCCO3)CC2)cc1Cl (single isomer, unassigned) the compound record lists Emax as 54

For CN(C)C(=O)c1ccc(OCC2CC3(CCN(C(=O)C(C)(C)c4ccccc4)CC3)C2)cc1Cl the compound record lists Emax as 60

For CN(C)C(=O)c1ccc(OCCC2CC23CCN(C(=O)C2(c4ccccc4Cl)CCC2)CC3)cc1Cl (single isomer, unassigned) the compound record lists Emax as 54

For CCc1nc(OCCCCC2CCN(C(=O)C(O)(c3ccccc3)C(F)(F)F)CC2)ccc1C(=O)N(C)C (stereo not drawn) the compound record lists Emax as 77

For Cc1nc(OC2CCC3(CC2)CCN(C(=O)C(O)(c2cccc(OC4CC4)c2)C(F)(F)F)CC3)ccc1C(=O)N(C)C (single isomer, unassigned) the compound record lists Emax as 46

For COc1cccc([C@@](O)(C(=O)N2CCC(C[C@@H](C)CCOc3ccc(C(=O)N(C)C)c(Cl)c3)CC2)C(F)(F)F)c1 (single isomer, unassigned) the compound record lists Emax as 70
